# System: human lung cancer strain NCI-H441
# Test: cells
# Assay setup: NCI-H441, 96 h, read-out: NCI-H441 IC50 (nM)
The label is criterion met for IC50 below 90 nM and criterion not met for IC50 equal to or exceeding 90 nM.

Lookup: Dear colleague, could you confirm whether IC50 of CCO[C@@H]1C[C@H]2C(=O)NC3(CCC3)C(=O)N(C)[C@@H](C3CCCC3)C(=O)N(C)[C@H](C(=O)N3CCCC3)CC(=O)N(C)[C@@H](CC3CCCC3)C(=O)N[C@@H]([C@@H](C)CC)C(=O)N(C)CC(=O)N(C)[C@H]3C/C=C\CCN(C3=O)[C@@H](Cc3ccc(F)cc3)C(=O)N(C)CC(=O)N[C@@H](CCc3ccc4sccc4c3)C(=O)N2C1 [PP1391] falls below 90 nM? Thanks.
Found: criterion not met

Lookup: Dear colleague, could you confirm whether IC50 of CCO[C@@H]1C[C@H]2C(=O)NC3(CCCC3)C(=O)N(C)[C@@H](C3CCCC3)C(=O)N(C)[C@H](C(=O)N3CCOCC3)CC(=O)N(C)[C@@H](CC)C(=O)N[C@@H]([C@@H](C)CC)C(=O)N(C)CC(=O)N(C)[C@H]3CC[C@@H](C)CN(C3=O)[C@@H](Cc3ccc(C(F)(F)F)cc3)C(=O)N(C)CC(=O)N[C@@H](CCc3cc(F)c(C(F)(F)F)c(F)c3)C(=O)N2C1 [PP1371] falls below 90 nM? Thanks.
Found: criterion met

Lookup: Dear colleague, could you confirm whether IC50 of CC[C@H](C)[C@@H]1NC(=O)[C@H](CC2CC2)N(C)C(=O)C[C@@H](C(=O)N(C)C)N(C)C(=O)[C@H](C2CCCC2)N(C)C(=O)C2(CC(C)(C)C2)NC(=O)[C@@H]2C[C@@H](C(F)(F)F)CN2C(=O)[C@H](CCc2cc(F)c(C(F)(F)F)c(F)c2)NC(=O)CN(C)C(=O)[C@H](Cc2ccc(C(F)(F)F)cc2)N2CC/C=C\C[C@@H](C2=O)N(C)C(=O)CN(C)C1=O [PP1504] falls below 90 nM? Thanks.
Found: criterion met

Lookup: Dear colleague, could you confirm whether IC50 of CCO[C@@H]1C[C@H]2C(=O)NC3(CCCC3)C(=O)N(C)[C@@H](C(CC)CC)C(=O)N(C)[C@H](C(=O)N3CCCC3)CC(=O)N(C)[C@@H](COC)C(=O)N[C@@H]([C@@H](C)CC)C(=O)N(C)CC(=O)N(C)[C@H]3C/C=C\CCN(C3=O)[C@@H](CC3CCCCC3)C(=O)N(C)CC(=O)N[C@@H](CCc3cc(F)c(C(F)(F)F)c(F)c3)C(=O)N2C1 [PP1439] falls below 90 nM? Thanks.
Found: criterion met

Lookup: Dear colleague, could you confirm whether IC50 of CCCCCC[C@H]1C(=O)N[C@@H]([C@@H](C)CC)C(=O)N(C)CC(=O)N(C)[C@H]2C/C=C\CCN(C2=O)[C@@H](Cc2ccc(C(F)(F)F)cc2)C(=O)N(C)CC(=O)N[C@@H](CCc2ccc3sccc3c2)C(=O)N2C[C@H](OCC)C[C@H]2C(=O)NC2(CCC2)C(=O)N(C)[C@@H](C(CC)CC)C(=O)N(C)[C@H](C(=O)N(C)C)CC(=O)N1C [PP1226] falls below 90 nM? Thanks.
Found: criterion not met
